System: LOX IMVI melanoma
Assay: NCI-60 one-dose screen, 48 h (100 = growth as untreated, 0 = no growth, -100 = all killed)
Conditions: 10 µM
About 83,000 compounds went through this panel and 20% of them were active in at least one assay; those are over-represented in the sample as a whole.
measurement.label: growth (%)
Numbers only, in %.

# count of solved cases: 6
O=C(NCc1ccco1)Nc1c(Cl)cc(Cl)cc1Cl	99.3
Cc1ccc(/C=C2\SC(=S)N(c3ccc(F)cc3)C2=O)o1	68.8
C=C1CC/C=C(\C)C(=O)C[C@@H]2[C@@H]1CC2(C)C	89.7
CC(C)NC(=O)OCc1c(COC(=O)NC(C)C)c(-c2ccc(Cl)c(Cl)c2)n2c1SCC2	19.1
Cc1ccc(C(=O)N/N=C/c2ccc3c(c2)OCO3)cc1	89.1
CN(C)c1ccc(CNC(C(=O)c2ccccc2)c2ccccc2)cc1 (centres undefined)	95.1

For each listed entry, give its growth.
1. O=[N+]([O-])c1ccc(S(=O)(=O)NN=C2CCCCC2)cc1
2. CC(=O)OC1CC2C(C)(C)OC3CC(=O)OCC32C2CCC3(C)C(=CCC3c3ccoc3)C12C (centres undefined)
3. O=C1Cc2ccccc2C(=O)O1
4. O=C(CCl)Nc1ccc2c(c1)C(=O)c1ccc(NC(=O)CCl)cc1C2=O

[reply]
[95, 98.4, 102, -89.6]

====

Exercise: state measured growth for each of the molecules provided.
System: MDA-MB-435 melanoma
Assay: NCI-60 one-dose screen, 48 h (100 = growth as untreated, 0 = no growth, -100 = all killed)
Conditions: 10 µM
Experimental: Growth inhibition of the MDA-MB-435 human Melanoma tumor cell line is measured as a screen for anti-cancer activity. Cells are grown in 96 well plates and exposed to the test compound for 48 hours. Compounds are tested at a single concentration, which is 10^-5 M for most compounds. The reported endpoint is percent growth (GI% or GIPRCNT), where numbers from 0 - 100% represent growth inhibition, and numbers from -100% - 0 represent cell death. […]
Compounds without any hit were thinned out: in the full panel of roughly 83,000, 20% have a hit. Where a SMILES comes first, the peptide text is derived from it. Bridges are numbered along the chain shown (N, C = ends). [ ]: non-standard residue; d: D form. The star is where a group is joined. ξ: configuration not given here. ξNMePhe(4-NMe2) = CNC(Cc1ccc(N(C)C)cc1)C(=O)O; Picolinoyl(3-OH) = O=C(c1ncccc1O)*; ξPip(4-oxo) = O=C1CCNC(C(=O)O)C1; Phg = N[CH](C(=O)O)c1ccccc1; Abu = CC[CH](N)C(=O)O
One number for each entry, in %.

Cc1cc(Cc2cc(C)c(N)cc2N)c(N)cc1N	106

For each listed entry, give its growth.
1. Cc1ccc(CCCC(=O)O)c(C)c1
2. CCC1NC(=O)C(NC(=O)c2ncccc2O)C(C)OC(=O)C(c2ccccc2)NC(=O)C2CC(=O)CCN2C(=O)C(Cc2ccc(N(C)C)cc2)N(C)C(=O)C2CCCN2C1=O (stereo unspecified) (tested in a mixture with another compound) ({Picolinoyl(3-OH)}-T[Abu]P[ξNMePhe(4-NMe2)][ξPip(4-oxo)][Phg]; ester 1-C; configuration not given here)

[reply]
1: 100; 2: 57.1

For each listed entry, give its growth.
1. O=c1[nH]cc(Cl)cc1O
2. CN(C)c1ccc(CNC(C(=O)c2ccccc2)c2ccccc2)cc1 (stereo unspecified)
3. COc1ccccc1C1OC2=Nc3cc(C)c(C)cc3NC2C1=O (stereo unspecified)
4. C=C1CC/C=C(\C)C(=O)C[C@@H]2[C@@H]1CC2(C)C

[reply]
1: 76.4; 2: 107; 3: 82.5; 4: 115

For each listed entry, give its growth.
1. Oc1ccccc1-c1nnco1
2. CN(C)/N=C/c1ccccc1O
3. c1ccc(/C(=N\N=C(/c2ccccc2)c2cccs2)c2cccs2)cc1
4. COc1cc2nc3cc([N+](=O)[O-])ccc3c(Cl)c2cc1OC
5. COc1ccccc1N=Nc1c(O)ccc2cc(S(=O)(=O)O)ccc12
6. CCCCC(=O)c1ccc(OC)cc1
7. COCCOC(=O)c1ccc(C(C)C)cc1
8. COc1ccc(C(C)C=O)cc1 (stereo unspecified)

[reply]
1. 91.5
2. 107
3. 103
4. 93.2
5. 108
6. 98.7
7. 102
8. 113

For each listed entry, give its growth.
1. CC(=O)Nc1cccc(Cl)c1C
2. Nc1ccc(C(=O)c2ccc(N)c(Br)c2)cc1Br
3. NC(C(=O)O)C(O)c1ccco1 (stereo unspecified)
4. Nc1ncnc2c1nc(N)n2C1OC(CO)C(O)C1O (stereo unspecified)
5. C#C[C@H]1CCCCCC1O (stereo partly specified)
6. CCOc1ccc(/C=C/C(=O)c2ccccc2)cc1
7. S=C(Nc1ccccc1)N1CCCCC1

[reply]
[94.8, -3.36, 107, -80.3, 109, 89.2, 110]

For each listed entry, give its growth.
1. NC(=S)NN=C1CCCC1
2. S=c1[nH]ccn1-c1ccccc1Cl
3. O=[N+]([O-])c1ccc(Sc2ccncn2)c([N+](=O)[O-])c1
4. COc1cc2c3c(n(C)c(=O)c2cc1OC)-c1cc2c(cc1C3=O)OCO2

[reply]
1. 103
2. 108
3. 8.62
4. 72.3

For each listed entry, give its growth.
1. O=C(CCl)N1CCN(C/C=C/c2ccccc2)CC1
2. COc1ccc(C(O)c2ccccc2)cc1 (stereo unspecified)
3. CO[C@H]1C[C@@H]2CC[C@@H](C)[C@@](O)(O2)C(=O)C(=O)N2CCCC[C@H]2C(=O)O[C@H]([C@H](C)C[C@@H]2CC[C@@H](O)[C@H](OC)C2)CC(=O)[C@H](C)C=C(C)[C@@H](O)[C@@H](OC)C(=O)[C@H](C)C[C@H](C)/C=C/C=C/C=C1C

[reply]
85
102
49

For each listed entry, give its growth.
1. Nc1ncnc2[nH]ncc12
2. O=C(N/N=C/c1ccccc1O)Nc1nn[nH]n1
3. C/C=C/CC(C)C(O)C1C(=O)NC(CC)C(=O)N(C)CC(=O)N(C)C(CC(C)C)C(=O)NC(C(C)C)C(=O)N(C)C(CC(C)C)C(=O)NC(C)C(=O)NC(C)C(=O)N(C)C(CC(C)C)C(=O)N(C)C(CC(C)C)C(=O)N(C)C(C(C)C)C(=O)N1C (stereo unspecified)
4. NCC(=O)CCC(=O)O
5. N#C/C(=C\c1cc(O)c(O)c(O)c1)C(N)=O
6. O=[N+]([O-])c1cccc(N=Nc2ccc(O)cc2O)c1

[reply]
1. 15.2
2. 98.3
3. -6.76
4. 108
5. 89.4
6. 87.3

For each listed entry, give its growth.
1. c1ccc(Sc2ccccc2)cc1
2. O=C1OC(=O)C2C1C1(Cl)C(Cl)=C(Cl)C2(Cl)C2C(=O)OC(=O)C21 (stereo unspecified)
3. CCOC(=O)C(CCC(C)C)C(=O)OCC
4. CC(=O)OC(OC(C)=O)C1CCCO1 (stereo unspecified)

[reply]
1. 99.6
2. 101
3. 102
4. 108
